All values here come from the supplement of paper PMC7125110.

B1: glmS ribozyme (parent)
chain: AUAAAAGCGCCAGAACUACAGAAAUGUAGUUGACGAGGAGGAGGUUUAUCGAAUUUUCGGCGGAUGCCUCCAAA

# Variants of: B1
# test description: self-cleavage kobs at 2500 uM GlcN6P; higher = faster cleavage; RNA array
# assay setup: with glucosamine-6-phosphate
This sample holds only a part of the variants without activity.

variant identifier	self-cleavage kobs at 2500 uM GlcN6P
A12C A20C	0.0118 s⁻¹
C8G A64C	< 1e-05 s⁻¹
A33U U45C C50A	< 1e-05 s⁻¹
G44C U55C C70G	< 1e-05 s⁻¹
G44U G62A	< 1e-05 s⁻¹
A36G A64U U65G	< 1e-05 s⁻¹
C34U U47A G59U A64C C70U	< 1e-05 s⁻¹
G29U U31C U54C	0.000161 s⁻¹
C16U U46C U56C	0.000416 s⁻¹
A12U G37C	5.79e-05 s⁻¹
C34A G43A A64G	< 1e-05 s⁻¹
